- Test system: velvetleaf (Abutilon theophrasti, ABUTH)
- Test Description: Pre-emerge test, greenhouse herbicide activity screening
- Format: in vivo
- Applied Conditions: 250 g ai/ha; rated 14 days after application; 0 = no damage, 100 = complete death
Parameter Pre-emerge Herbicidal Activity, phytotoxicity rating (0-100), ABUTH: see the listing below.
Measurement Name: Pre-emerge Herbicidal Activity, phytotoxicity rating (0-100), ABUTH

- COc1c(Cl)cc(F)c(-n2c(=O)cc(C(F)(F)F)n(C)c2=O)c1N(C(=O)c1ccc(F)c(F)c1)C(=O)c1ccc(F)c(F)c1: 100
- CCOC(=O)C(=O)Nc1c(OC)c(Cl)cc(F)c1-n1c(=O)cc(C(F)(F)F)n(C)c1=O: 100
- COc1c(Cl)cc(F)c(-n2c(=O)cc(C(F)(F)F)n(C)c2=O)c1NC(=O)COc1ccccc1: 100
- COc1c(Cl)cc(F)c(-n2c(=O)cc(C(F)(F)F)n(C)c2=O)c1N(C(=O)COc1ccccc1)C(=O)COc1ccccc1: 100
- Cn1c(C(F)(F)F)cc(=O)n(-c2c(F)cc(Cl)c(OCC#N)c2N(C(=O)c2ccc(F)cc2F)C(=O)c2ccc(F)cc2F)c1=O: 70
- COc1c(Cl)cc(F)c(-n2c(=O)cc(C(F)(F)F)n(C)c2=O)c1NC(=O)c1cc([N+](=O)[O-])cc([N+](=O)[O-])c1: 90
- COc1c(Cl)cc(F)c(-n2c(=O)cc(C(F)(F)F)n(C)c2=O)c1NC(=O)COCc1ccccc1: 100

###

- Tested on: velvetleaf (Abutilon theophrasti, ABUTH)
- Test Description: Post-emerge test, greenhouse herbicide activity screening
- Type: in vivo
- Applied Conditions: 250 g ai/ha; post-emerge; 14 days after application; rating scale 0-100
- Method: A standard greenhouse herbicide activity screening system was used to evaluate the herbicidal efficacy and crop safety of these test compounds. […] At 14 days after application of the test materials, phytotoxicity ratings were recorded. […]
Measurement Name: Post-emerge Herbicidal Activity ABUTH (phytotoxicity rating)

* CCOC(=O)CC(C)=NNc1c(OC)c(Cl)cc(F)c1-n1c(=O)cc(C(F)(F)F)n(C)c1=O | 100
* Cn1c(C(F)(F)F)cc(=O)n(-c2ccc(Cl)cc2/C=C/c2ccc3ccccc3c2)c1=O | 30
* COc1c(Cl)cc(F)c(-n2c(=O)cc(C(F)(F)F)n(C)c2=O)c1OC(=O)c1ccc2ccccc2c1 | 0
* COc1c(Cl)cc(F)c(-n2c(=O)cc(C(F)(F)F)n(C)c2=O)c1SCCO | 80
* COc1c(Cl)cc(F)c(-n2c(=O)cc(C(F)(F)F)n(C)c2=O)c1NNC(=O)Oc1ccccc1 | 100
* COc1c(Cl)cc(F)c(-n2c(=O)cc(C(F)(F)F)n(C)c2=O)c1NN=CCCSC | 100
* Cn1c(C(F)(F)F)cc(=O)n(-c2c(O)cc(Cl)cc2Cl)c1=O | 100
* C=CC=NNc1c(OC)c(Cl)cc(F)c1-n1c(=O)cc(C(F)(F)F)n(C)c1=O | 100

###

Parameter Post-emerge Herbicidal Activity CHEAL (phytotoxicity rating): see the listing below.
- System: lambsquarters (Chenopodium album, CHEAL)
- Test Description: Post-emerge test, greenhouse herbicide activity screening
- Format: in vivo
- Applied Conditions: 63 g ai/ha; post-emerge; 14 days after application; rating scale 0-100
Measurement Name: Post-emerge Herbicidal Activity CHEAL (phytotoxicity rating)

* Cn1c(C(F)(F)F)cc(=O)n(-c2c(O)cc(Cl)cc2Cl)c1=O | 0
* COc1c(Cl)cc(F)c(-n2c(=O)cc(C(F)(F)F)n(C)c2=O)c1NN=CCc1ccccc1 | 100
* COc1c(Cl)cc(F)c(-n2c(=O)cc(C(F)(F)F)n(C)c2=O)c1NN=CCCSC | 100
* CCOC(=O)CC(C)=NNc1c(OC)c(Cl)cc(F)c1-n1c(=O)cc(C(F)(F)F)n(C)c1=O | 100
* COc1c(Cl)cc(F)c(-n2c(=O)cc(C(F)(F)F)n(C)c2=O)c1SCCO | 40
* COc1c(Cl)cc(F)c(-n2c(=O)cc(C(F)(F)F)n(C)c2=O)c1NNC(=O)c1ccc(F)cc1F | 100

All values here come from patent US6355799B1.
